Origin of values: ChEMBL document CHEMBL1153637

- Test system: Prostaglandin G/H synthase 2 (Homo sapiens, UniProt P35354)
- Sequence (P35354 whole entry): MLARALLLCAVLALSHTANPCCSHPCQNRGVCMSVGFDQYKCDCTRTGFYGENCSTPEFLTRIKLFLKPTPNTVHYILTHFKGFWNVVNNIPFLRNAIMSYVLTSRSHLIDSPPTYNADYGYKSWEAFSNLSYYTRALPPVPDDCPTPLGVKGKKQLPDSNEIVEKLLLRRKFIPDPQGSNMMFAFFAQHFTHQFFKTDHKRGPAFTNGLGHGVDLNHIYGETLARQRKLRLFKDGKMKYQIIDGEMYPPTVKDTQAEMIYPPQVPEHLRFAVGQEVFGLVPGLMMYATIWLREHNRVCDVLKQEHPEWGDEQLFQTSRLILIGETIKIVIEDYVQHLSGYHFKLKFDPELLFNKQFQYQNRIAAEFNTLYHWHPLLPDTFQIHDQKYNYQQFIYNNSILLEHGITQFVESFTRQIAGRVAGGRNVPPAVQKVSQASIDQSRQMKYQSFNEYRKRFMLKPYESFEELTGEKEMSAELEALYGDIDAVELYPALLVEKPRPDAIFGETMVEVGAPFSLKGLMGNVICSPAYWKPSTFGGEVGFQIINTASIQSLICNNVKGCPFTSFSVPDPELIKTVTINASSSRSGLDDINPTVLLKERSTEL
- Experiment description: Inhibition of human COX2 expressed in african green monkey COS cells assessed as inhibition of arachidonic acid-stimulated PGE2 production by enzyme immunoassay
Quantity: IC50 (nM)

Illustrative cases are given below, each with its answer.
CS(=O)(=O)c1ccc(-c2cnc(Cc3ccccc3O)nc2-c2ccc(F)cc2)cc1 | 43
CC(C)c1ncc(-c2ccc(S(C)(=O)=O)cc2)c(-c2ccc(F)cc2)n1 | 1140

a: CN(c1ccccc1)c1ncc(-c2ccc(S(C)(=O)=O)cc2)c(-c2ccc(F)cc2)n1
b: CS(=O)(=O)c1ccc(-c2cnc(Cc3ccccn3)nc2-c2ccc(F)cc2)cc1
Request: For this pair, a and b , which shows a numerically higher IC50? // respond with label for picked entry
Response: b

###

- Test system: Prostaglandin G/H synthase 1 (Homo sapiens, UniProt P23219)
- Sequence (P23219 whole entry): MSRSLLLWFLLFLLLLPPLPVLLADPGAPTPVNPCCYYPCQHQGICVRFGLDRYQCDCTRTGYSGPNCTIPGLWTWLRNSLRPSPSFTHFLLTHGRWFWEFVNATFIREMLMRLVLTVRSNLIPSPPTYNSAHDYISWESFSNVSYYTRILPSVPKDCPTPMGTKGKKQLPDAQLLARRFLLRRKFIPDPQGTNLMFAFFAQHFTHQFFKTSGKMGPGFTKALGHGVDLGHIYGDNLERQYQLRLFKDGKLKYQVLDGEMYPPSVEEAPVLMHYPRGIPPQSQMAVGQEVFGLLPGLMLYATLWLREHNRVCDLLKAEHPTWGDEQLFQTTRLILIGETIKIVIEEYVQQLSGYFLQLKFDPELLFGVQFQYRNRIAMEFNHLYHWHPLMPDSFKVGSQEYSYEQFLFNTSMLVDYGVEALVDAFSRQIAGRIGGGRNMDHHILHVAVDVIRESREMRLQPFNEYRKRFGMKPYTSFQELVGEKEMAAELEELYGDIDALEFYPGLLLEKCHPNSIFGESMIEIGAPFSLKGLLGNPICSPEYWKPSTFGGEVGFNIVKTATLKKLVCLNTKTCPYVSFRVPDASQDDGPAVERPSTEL
- Experiment description: Inhibition of human COX1 expressed in african green monkey COS cells assessed as inhibition of arachidonic acid-stimulated PGE2 production by enzyme immunoassay
pIC50: −log10 of the molar value.
Quantity: pIC50

Illustrative cases are given below, each with its answer.
CS(=O)(=O)c1ccc(-c2cnc(Sc3ccccc3)nc2-c2ccc(F)cc2)cc1 | < 4.00
CS(=O)(=O)c1ccc(-c2cnc(Cc3ccc(F)cc3)nc2-c2ccc(F)cc2)cc1 | < 4.00

Request: Report pIC50 for "CS(=O)(=O)c1ccc(-c2cnc(Cc3ccc(F)cc3F)nc2-c2ccc(F)cc2)cc1" please.
Response: < 4.28

###

- Test system: Prostaglandin G/H synthase 2 (Homo sapiens)
- Experiment description: Inhibition of human COX2 expressed in african green monkey COS cells assessed as inhibition of arachidonic acid-stimulated PGE2 production by enzyme immunoassay
pIC50: −log10 of the molar value.
Quantity: pIC50

Illustrative cases are given below, each with its answer.
CS(=O)(=O)c1ccc(-c2cnc(Cc3ccccc3)[n+]([O-])c2-c2ccc(F)cc2)cc1 | 6.14
CS(=O)(=O)c1ccc(-c2cnc(Cc3ccc(F)cc3F)nc2-c2ccc(F)cc2)cc1 | 6.94
CS(=O)(=O)c1ccc(-c2cnc(CC3CCCCC3)nc2-c2ccc(F)cc2)cc1 | 7.92

A: CS(=O)(=O)c1ccc(-c2cnc(CCc3ccccc3)nc2-c2ccc(F)cc2)cc1
B: Cn1cccc1Cc1ncc(-c2ccc(S(C)(=O)=O)cc2)c(-c2ccc(F)cc2)n1
C: CS(=O)(=O)c1ccc(-c2cnc(Cc3ccc(F)cc3)nc2-c2ccc(F)cc2)cc1
D: CS(=O)(=O)c1ccc(-c2cnc(Nc3ccccc3)nc2-c2ccc(F)cc2)cc1
E: CS(=O)(=O)c1ccc(-c2cnc(Cc3ccccc3)nc2-c2ccc(F)cc2)cc1
Request: Please produce an ascending ranking of these compounds based on pIC50. Write the labels out in the order the request specifies.
Response: A, C, E, D, B
(A: 5.28, C: 6.56, E: 6.98, D: 7.25, B: 7.64)

###

- Species: Homo sapiens
- Experiment description: Selectivity ratio of IC50 for human COX1 to IC50 for human COX2
Quantity: Ratio IC50

CS(=O)(=O)c1ccc(-c2cnc(CC3CCCCC3)nc2-c2ccc(F)cc2)cc1 | 247

I: CS(=O)(=O)c1ccc(-c2cnc(CCc3ccccc3)nc2-c2ccc(F)cc2)cc1
II: CC(C)c1ncc(-c2ccc(S(C)(=O)=O)cc2)c(-c2ccc(F)cc2)n1
III: CN(c1ccccc1)c1ncc(-c2ccc(S(C)(=O)=O)cc2)c(-c2ccc(F)cc2)n1
IV: Cn1cccc1Cc1ncc(-c2ccc(S(C)(=O)=O)cc2)c(-c2ccc(F)cc2)n1
Request: Highest Ratio IC50 first, then in falling order down to the smallest. Write the labels out in the order the request specifies.
Response: IV, III, II, I
